Target: mu receptor (Rattus norvegicus)
Construct: rat whole brain minus cerebellum for mu was homogenized; from tissue; host or cells: brain of male Sprague Dawley rats, whole brain minus cerebellum, homogenate fraction
Assay: opioid receptor binding assay, [3H] NAL (tritiated naloxone), mu receptor
Design: species or system rat (Male Sprague Dawley), brain minus cerebellum
Experimental: This assay was conducted by the following procedure. Male Sprague Dawley rats for mu site experiments were sacrificed via decapitation and the brains were removed. […] The reaction was initiated by the addition of the resuspended tissue which had been preincubated at 37° C. for 20 minutes. […] Washed filters were placed in scintillation vials and 10 ml RedySolv, (Brandel), was added and samples counted in a Searle D-300 beta counter. […]
Structures can show the parent of a compound that is named as a salt.
Endpoint: pKi
# pKi is unitless: minus log10 of the molar concentration; print number only

Field: pKi (mu receptor (Rattus norvegicus)). Entry: CCOC(=O)CCCNC(=O)C(CC1CCCCC1)CN1CC[C@@](C)(c2cccc(O)c2)[C@@H](C)C1 (stereo partly drawn) [Example 39, monohydrochloride]
8.43

Follow-up item: C[C@H]1CN(CC(Cc2ccccc2)C(=O)NCCCC(N)=O)CC[C@@]1(C)c1cccc(O)c1 (stereo partly drawn) [Example 63, monohydrochloride]
8.70

Follow-up item: C[C@H]1CN(CCC(C(=O)NCC(=O)O)c2ccccc2)CC[C@@]1(C)c1cccc(O)c1 (relative stereo) [Example 12, monohydrate]
8.72

Follow-up item: CCc1noc(CNC(=O)C(Cc2ccccc2)CN2CC[C@@](C)(c3cccc(O)c3)[C@@H](C)C2)n1 (relative stereo)
9.15

Follow-up item: C[C@H]1CN(CC(CC2CCCCC2)C(=O)NCCCC(N)=O)CC[C@@]1(C)c1cccc(O)c1 (stereo partly drawn) [Example 40, hydrochloride]
9.12

Follow-up item: C[C@H]1CN(CC(CC2CCCCC2)C(=O)NCCC(=O)OCc2ccccc2)CC[C@@]1(C)c1cccc(O)c1 (relative stereo) [Example 34, monohydrochloride]
7.44

====

Catalogue of Ratio (AD50 mouse writhing test / ED50 mouse diarrhea test) values
molecular target: peripheral opioid receptors (Mus musculus); construct: Mice maintained (6 mice/cage) on 0.01M saccharin water with 1 g/1 morphine sulfate; from tissue; host or cells: living morphine-maintained mice (in vivo test; endogenous receptor); assay: precipitated diarrhea in morphine-maintained mice (peripheral opioid activity) and comparison with the writhing test; assay type: in vivo; settings: higher ratio = greater relative antagonism of peripheral opioid receptors
Sequence (P42866 whole entry): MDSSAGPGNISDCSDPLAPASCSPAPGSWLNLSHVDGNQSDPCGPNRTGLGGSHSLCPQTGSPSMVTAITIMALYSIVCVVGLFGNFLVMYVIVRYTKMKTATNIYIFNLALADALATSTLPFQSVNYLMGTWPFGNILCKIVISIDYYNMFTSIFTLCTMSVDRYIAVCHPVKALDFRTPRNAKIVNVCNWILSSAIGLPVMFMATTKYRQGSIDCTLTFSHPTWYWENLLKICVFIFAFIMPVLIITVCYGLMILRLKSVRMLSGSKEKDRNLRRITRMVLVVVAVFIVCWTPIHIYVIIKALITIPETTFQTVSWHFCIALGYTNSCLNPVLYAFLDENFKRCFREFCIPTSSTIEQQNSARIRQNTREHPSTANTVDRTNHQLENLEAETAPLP
Structures can show the parent of a compound that is named as a salt.
Number, no unit, nothing else.

C[C@H]1CN(CC(Cc2ccccc2)C(=O)NCC(=O)N(C)C)CC[C@@]1(C)c1cccc(O)c1 (stereo partly drawn) [Example 47, monohydrochloride monohydrate]
267
C[C@H]1CN(CC(Cc2ccccc2)C(=O)NCCC(=O)OCc2ccccc2)CC[C@@]1(C)c1cccc(O)c1 (stereo partly drawn) [Example 56, hydrochloride]
667
CCOC(=O)C(CCN1CC[C@@](C)(c2cccc(O)c2)[C@@H](C)C1)c1ccccc1 (relative stereo) [Example 8A, hydrochloride]
35

Ratio (AD50 mouse writhing test / ED50 mouse diarrhea test) lookup needed for C[C@H]1CN(CC(Cc2ccccc2)C(=O)NCC(=O)OCC(N)=O)CC[C@@]1(C)c1cccc(O)c1 (relative stereo) [Example 87] , thanks.
27

====

Catalogue of inhibition at 0.1 µM values
biological target: mu receptor (Rattus norvegicus, UniProt P33535); construct: rat whole brain minus cerebellum for mu was homogenized; from tissue; host or cells: brain of male Sprague Dawley rats, whole brain minus cerebellum, homogenate fraction; experiment: opioid receptor binding assay, [3H] NAL (tritiated naloxone), mu receptor; parameters: species or system rat (Male Sprague Dawley), brain minus cerebellum; settings: 20 min, 100 nM test compound; [3H] naloxone 0.5 nM; read-out: % displacement at 100 nM
Sequence (P33535 whole entry): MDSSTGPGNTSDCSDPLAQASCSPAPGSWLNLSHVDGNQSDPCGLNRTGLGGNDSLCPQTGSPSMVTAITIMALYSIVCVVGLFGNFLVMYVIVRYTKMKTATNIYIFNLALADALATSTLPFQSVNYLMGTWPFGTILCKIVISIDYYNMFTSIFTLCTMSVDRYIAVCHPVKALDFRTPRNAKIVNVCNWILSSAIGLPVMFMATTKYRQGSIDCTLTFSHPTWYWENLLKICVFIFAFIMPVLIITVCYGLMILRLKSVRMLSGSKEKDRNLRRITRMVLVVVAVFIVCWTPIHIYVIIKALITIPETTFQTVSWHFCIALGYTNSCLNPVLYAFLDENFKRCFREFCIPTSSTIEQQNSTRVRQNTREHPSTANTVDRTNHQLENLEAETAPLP
API: value field is a number in %; no unit string.

CCNC(=O)CNC(=O)C(Cc1ccccc1)CN1CC[C@@](C)(c2cccc(OC)c2)[C@@H](C)C1 (single isomer, unassigned)
83

Turning now to a further molecule:
Field: inhibition at 0.1 µM (mu receptor (Rattus norvegicus, UniProt P33535)). Entry: CCOC(=O)C(Cc1ccccc1)CN1CC[C@@](C)(c2cccc(OC)c2)[C@@H](C)C1 (single isomer, unassigned) [Example 78B]
2
